- target desc: human cathepsin F (Homo sapiens, UniProt Q9UBX1)
- Sequence (Q9UBX1 271-484): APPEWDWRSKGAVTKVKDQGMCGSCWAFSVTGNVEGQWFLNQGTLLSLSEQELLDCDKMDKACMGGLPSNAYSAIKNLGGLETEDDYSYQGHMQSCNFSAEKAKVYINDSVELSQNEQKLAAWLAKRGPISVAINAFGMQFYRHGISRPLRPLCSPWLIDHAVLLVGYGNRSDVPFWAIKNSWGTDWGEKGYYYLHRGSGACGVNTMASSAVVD
- assay method text: Cathepsin F assay (hCat F)
- Type: biochemical
- conditions: Z-Phe-Arg-AMC substrate, pH 5.5, 15 min preincubation; read-out: hCat F (IP (nM))
readout label: IC50 (nM)

Take a look at these entries with their results.
{"smiles string": "N#CC1(NC(=O)[C@@H]2CCC(F)(F)C[C@H]2c2nc(-c3ccc(F)cn3)sc2-c2ccc(N3CCS(=O)(=O)CC3)cc2)CC1", "recorded measurement": 1000}
{"smiles string": "CN=S1(=O)CCN(c2ccc(-c3oc(C(C)(C)C)nc3[C@@H]3CC[C@H](F)C[C@H]3C(=O)N[C@@H](C)C#N)cc2)CC1", "recorded measurement": 6900}
{"smiles string": "N#CC1(NC(=O)[C@@H]2CCCC[C@H]2c2nc(N3CCC4(CC3)CC4)sc2-c2ccc(N3CCS(=O)(=O)CC3)cc2)CC1", "recorded measurement": 1000}

a. COc1ccc(-c2nc([C@@H]3CC[C@H](F)C[C@H]3C(=O)NC3(C#N)CC3)c(-c3ccc(N4CCS(=O)(=O)CC4)cc3)s2)nc1
b. N#CC1(NC(=O)[C@@H]2CCCC[C@H]2c2nc(N3CCO[C@@H](C(F)(F)F)C3)sc2-c2ccc(N3CCS(=O)(=O)CC3)cc2)CC1
c. CS(=O)(=O)N1CCN(C(=O)c2ccc(-c3sc(-c4ccc(F)cc4)nc3[C@@H]3CCC(F)(F)C[C@H]3C(=O)NC3(C#N)CC3)cc2)CC1
Task: Could you please sort these 3 entries by IC50 from high to low? Answer format: the labels, ordered as requested.
Result: b, a, c
(b: 5280 nM, a: 1000 nM, c: 57 nM)

###

- target desc: human cathepsin K (UniProt P43236)
- assay method text: Cathepsin K Assay (hrbCat K)
- Type: biochemical
- conditions: Z-Leu-Arg-AMC substrate, pH 5.5, 15 min preincubation; read-out: hrbCat K (IP (nM))
readout label: IC50 (nM)

1. N#CC1(NC(=O)[C@@H]2CCC(F)(F)C[C@H]2c2nc(-c3cncc(F)c3)sc2-c2ccc(N3CCS(=O)(=O)CC3)cc2)CC1 [Example 108]
2. N#CC1(NC(=O)[C@@H]2CCCC[C@H]2c2nc(CC(F)(F)F)sc2-c2ccc(N3CCS(=O)(=O)CC3)cc2)CC1 [Example 22]
3. N#CC1(NC(=O)[C@@H]2CC(F)(F)CC[C@H]2c2nc(-c3ccc(F)cc3)sc2-c2ccc(N3CCS(=O)(=O)CC3)cc2)CC1 [Example 26]
Task: Rank descending by IC50. In plain terms: list the labels in the order you were asked to.
Result: 2, 1, 3
(2: 6.6 nM, 1: 1.7 nM, 3: 0.3 nM)

###

- target desc: human cathepsin K (UniProt P43236)
- assay method text: Cathepsin K Assay (hrbCat K)
- Format: biochemical
- conditions: Z-Leu-Arg-AMC substrate, pH 5.5, 15 min preincubation; read-out: hrbCat K (IP (nM))
- Method: Cathepsin K Assay (hrbCat K) Then 0.5 μL of DMSO from each dilution were added to 18.75 μL of assay buffer (MES, 50 mM (pH 5.5); EDTA, 2.5 mM; DTT, 2.5 mM and 10% DMSO) containing human cathepsin K (0.4 nM) in assay buffer solution. The assay solutions were mixed for 5-10 seconds on a shaker plate and incubated for 15 minutes at room temperature. […] Percent of inhibition were calculated by fitting experimental values to standard mathematical model for dose response curve.
readout label: IC50 (nM)

{"smiles string": "N#CC1(NC(=O)[C@@H]2CCCC[C@H]2c2nc(-c3ccc(F)cc3)sc2-c2ccc(C(=O)N3CCOCC3)cc2)CC1", "IC50 / nM": 65.1}
{"smiles string": "N#CC1(NC(=O)[C@@H]2CCCC[C@H]2c2nc(-c3ccc(F)cn3)sc2-c2ccc(N3CCS(=N)(=O)CC3)cc2)CC1", "IC50 / nM": 1.9}

A. N#CC1(NC(=O)[C@@H]2CCCC[C@H]2c2nc(N3CCC(F)(F)C3)sc2-c2ccc(N3CCS(=O)(=O)CC3)cc2)CC1
B. CC(C)(O)c1ccc(-c2nc([C@@H]3CCCC[C@H]3C(=O)NC3(C#N)CC3)c(-c3ccc(N4CCS(=O)(=O)CC4)cc3)s2)cc1
Task: // compare measured IC50 between A and B ; output the lower one The response must carry the label of the picked entry.
Result: B
(B: 1.2 nM, A: 3.1 nM)

P. COc1cncc(F)c1-c1nc([C@@H]2CCCC[C@H]2C(=O)NC2(C#N)CC2)c(-c2ccc(N3CCS(=O)(=O)CC3)cc2)s1
Q. N#CCNC(=O)[C@@H]1C[C@@H](F)CC[C@H]1c1nc(-c2cncc(F)c2)sc1-c1ccc(N2CCS(=O)(=O)CC2)cc1
Task: Parameter metric = IC50. Return the lower-valued option from P and Q . Respond with the label that goes with your answer.
Result: Q
(Q: 1.7 nM, P: 2.8 nM)

###

- target desc: human cathepsin K (UniProt P43236)
- assay method text: Cathepsin K Assay (hrbCat K)
- Format: biochemical
- conditions: Z-Leu-Arg-AMC substrate, pH 5.5, 15 min preincubation; read-out: hrbCat K (IP (nM))
readout label: IC50 (nM)

{"compound": "C[C@@H](C#N)NC(=O)[C@@H]1CCCC[C@H]1c1nc(C(O)C(F)(F)F)sc1-c1ccc(N2CCS(=O)(=O)CC2)cc1 (mixture of isomers)", "target desc": "human cathepsin K (UniProt P43236)", "IC50, nM": 2.6}
{"compound": "CS(=O)(=O)C1CN(c2ccc(-c3sc(-c4cncc(Cl)c4)nc3[C@@H]3CCCC[C@H]3C(=O)NC3(C#N)CC3)cc2)C1", "target desc": "human cathepsin K (UniProt P43236)", "IC50, nM": 2.1}
{"compound": "N#CC1(NC(=O)[C@@H]2CCCC[C@H]2c2nc(-c3ccc(C(F)(F)F)cn3)sc2-c2ccc(N3CCS(=O)(=O)CC3)cc2)CC1", "target desc": "human cathepsin K (UniProt P43236)", "IC50, nM": 2.2}
{"compound": "N#CC1(NC(=O)[C@@H]2CCCC[C@H]2c2nc(-c3cncc(F)c3)sc2-c2ccc(N3CCS(=O)(=O)C4(CC4)C3)cc2)CC1", "target desc": "human cathepsin K (UniProt P43236)", "IC50, nM": 1.9}

###

- target desc: UniProtKB P43236
- assay method text: Cathepsin K Assay (hrbCat K)
- Assay type: biochemical
- conditions: Z-Leu-Arg-AMC substrate, pH 5.5, 15 min preincubation; read-out: hrbCat K (IP (nM))
readout label: IC50 (nM)

Please review the following examples before continuing.
{"compound": "N#CC1(NC(=O)[C@@H]2CC3CC3C[C@H]2c2nc(-c3cncc(Cl)c3)sc2-c2ccc(N3CCS(=O)(=O)CC3)cc2)CC1 (single isomer, unassigned) [Example 109]", "units of measure": "nM", "IC50": 0.6}
{"compound": "Cc1nc(-c2nc([C@@H]3CCCC[C@H]3C(=O)NC3(C#N)CC3)c(-c3ccc(N4CCS(=O)(=O)CC4)cc3)s2)cs1", "units of measure": "nM", "IC50": 3.3}
{"compound": "N#CC1(NC(=O)[C@@H]2C[C@@H](F)CC[C@H]2c2nc(C3CC(F)C3)sc2-c2ccc(N3CCS(=O)(=O)CC3)cc2)CC1 (single isomer, unassigned) [Example 233]", "units of measure": "nM", "IC50": 6}
{"compound": "CC(C)(C)Nc1nc([C@@H]2CCCC[C@H]2C(=O)NC2(C#N)CC2)c(-c2ccc(N3CCS(=O)(=O)CC3)cc2)s1", "units of measure": "nM", "IC50": 19.4}
{"compound": "N#CC1(NC(=O)[C@@H]2CCCC[C@H]2c2nc(NC3CCCCC3)sc2-c2ccc(N3CCS(=O)(=O)CC3)cc2)CC1", "units of measure": "nM", "IC50": 41.2}
{"compound": "N#CC1(NC(=O)[C@@H]2CC3CC3C[C@H]2c2nc(-c3cncc(F)c3)sc2-c2ccc(N3CCS(=O)(=O)CC3)cc2)CC1 (single isomer, unassigned) [Example 112]", "units of measure": "nM", "IC50": 0.9}
{"compound": "N#CC1(NC(=O)[C@@H]2CCCC[C@H]2c2nc(-c3cnc(C4CC4)c(F)c3)sc2-c2ccc(N3CCS(=O)(=O)CC3)cc2)CC1", "units of measure": "nM", "IC50": 1.7}
{"compound": "Cc1nc([C@@H]2CCCC[C@H]2C(=O)NCC#N)c(-c2ccc(C(=O)N3CCOCC3)cc2)s1", "units of measure": "nM", "IC50": 17}

I. C[C@@H](C#N)NC(=O)[C@@H]1C[C@@H](F)CC[C@H]1c1nc(C2(C(F)(F)F)CC2)sc1-c1ccc(N2CCS(=O)(=O)CC2)cc1
II. CC(C)[C@@H](C#N)NC(=O)[C@@H]1C[C@@H](F)CC[C@H]1c1nc(C(C)(C)C)oc1-c1ccc(N2CCS(=N)(=O)CC2)cc1
Task: Hi team, can someone confirm which has the larger IC50: I or II ? Thanks. Bench note: the answer is the label of the chosen record.
Result: II
